A compilation of published IC50 results with D(3) dopamine receptor (Rattus norvegicus).
Sequence (P19020 whole entry): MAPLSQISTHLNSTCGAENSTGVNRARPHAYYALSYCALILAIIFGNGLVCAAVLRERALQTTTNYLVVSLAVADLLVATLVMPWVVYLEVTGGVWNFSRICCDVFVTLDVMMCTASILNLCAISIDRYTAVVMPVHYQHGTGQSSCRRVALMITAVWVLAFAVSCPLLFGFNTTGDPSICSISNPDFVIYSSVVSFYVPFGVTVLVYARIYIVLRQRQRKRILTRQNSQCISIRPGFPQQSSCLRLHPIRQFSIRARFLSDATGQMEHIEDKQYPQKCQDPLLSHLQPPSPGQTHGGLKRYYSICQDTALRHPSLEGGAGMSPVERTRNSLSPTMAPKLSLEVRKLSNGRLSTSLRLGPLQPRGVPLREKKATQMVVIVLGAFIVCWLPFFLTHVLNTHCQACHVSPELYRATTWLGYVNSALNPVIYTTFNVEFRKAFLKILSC
attribute.measured: IC50 (nM)

Examples from the recorded data:
molecule	endpoint.unit	endpoint.value
N#Cc1cc(N2CCN(CC[C@H]3CC[C@H](NS(=O)(=O)c4cccc(C#N)c4)CC3)CC2)cc(C(F)(F)F)c1	nM	5.8
COc1ccc(S(=O)(=O)N[C@H]2CC[C@H](CCN3CCN(c4cccc(C#N)c4)CC3)CC2)cc1OC	nM	0.7
CC(=O)Nc1ccc(S(=O)(=O)N[C@H]2CC[C@H](CCN3CCN(c4cc(C#N)cc(C(F)(F)F)c4)CC3)CC2)cc1	nM	0.9

a. N#Cc1cc(N2CCN(CC[C@H]3CC[C@H](NS(=O)(=O)c4ccc5c(c4)CCC(=O)N5)CC3)CC2)cc(C(F)(F)F)c1
b. CCN1CCc2c(sc3ccccc23)C(c2cccc(Br)c2)C1 (stereo not drawn)
c. CCCN1CCO[C@@H]2c3cc(C(N)=O)ccc3CC[C@H]21 (relative stereo)
d. CN1CCc2c([nH]c3ccccc23)C(c2ccccc2)C1 (stereo not drawn)
e. O=S(=O)(N[C@H]1CC[C@H](CCN2CCC(Nc3cc(Cl)ccc3Cl)CC2)CC1)c1ccc(F)cc1
Please list these molecules in decreasing order of IC50. List the labels, following the order given in the request.
d, b, c, e, a
(d: 4200 nM, b: 2000 nM, c: 4.13 nM, e: 2 nM, a: 0.7 nM)

====

A compilation of published pIC50 results with UniProtKB P19020.
pIC50: −log10 of the molar value.
attribute.measured: pIC50

I. N#Cc1ccc2[nH]cc(CCCCN3CCN(c4ccc5oc(C(N)=O)cc5c4)CC3)c2c1
II. Cc1ccc(S(=O)(=O)N[C@H]2CC[C@H](CCN3CCN(c4cc(C#N)cc(C(F)(F)F)c4)CC3)CC2)cn1
Hi team, can someone confirm which has the larger pIC50: I or II ? Thanks. Select an item and report its label.
II
(II: 8.38, I: 7.15)

P. CCN1CCc2c(sc3ccccc23)C(c2cccc([N+](=O)[O-])c2)C1 (centres undefined)
Q. N#Cc1cc(N2CCN(CC[C@H]3CC[C@H](NS(=O)(=O)c4ccc(Br)cc4)CC3)CC2)cc(C(F)(F)F)c1
Hi there, can you help? I need to know whether P or Q has lower measured pIC50. Select an item and report its label.
P
(P: 6.22, Q: 8.48)
